- MEASURED TARGET: UniProtKB Q13557
- Sequence (Q13557 whole entry, looked up): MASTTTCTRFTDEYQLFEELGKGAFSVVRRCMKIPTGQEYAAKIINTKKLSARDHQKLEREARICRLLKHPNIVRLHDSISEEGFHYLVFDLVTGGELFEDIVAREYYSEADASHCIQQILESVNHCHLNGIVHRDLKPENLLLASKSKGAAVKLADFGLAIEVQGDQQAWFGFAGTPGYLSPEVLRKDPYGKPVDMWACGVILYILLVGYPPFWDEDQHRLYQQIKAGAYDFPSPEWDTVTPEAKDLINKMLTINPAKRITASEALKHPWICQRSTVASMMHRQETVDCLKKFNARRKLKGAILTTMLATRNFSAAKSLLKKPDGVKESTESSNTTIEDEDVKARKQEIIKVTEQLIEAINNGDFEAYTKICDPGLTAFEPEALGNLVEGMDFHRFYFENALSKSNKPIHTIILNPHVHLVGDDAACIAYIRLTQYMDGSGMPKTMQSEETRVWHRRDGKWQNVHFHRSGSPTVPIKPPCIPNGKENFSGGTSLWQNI
- PROTOCOL DETAILS: radiometric filter-binding kinase assay, Kinase HotSpot
- TEST CONTEXT: compound 0.5 µM; ATP 10 µM
Measured residual activity of individual entries

COMPOUND STRING | DISPLAY UNIT | residual activity
Cn1c2ccccc2c2c3c(c4c5ccccc5n(CCC#N)c4c21)CNC3=O | % | 20.3
COc1cc2ncnc(Nc3ccc(Oc4ccccc4)cc3)c2cc1OC | % | 97.2
O=C1NC(=O)c2c1c1c3ccccc3[nH]c1n1cncc21 | % | 36.7
Cc1cccc(-c2nc(C(C)(C)C)[nH]c2-c2ccc3c(c2)OCO3)n1 | % | 100
CN(C)S(=O)(=O)c1ccc2c(c1)/C(=C/c1cc3c([nH]1)CCCC3)C(=O)N2 | % | 73.2
COc1ccc(S(=O)(=O)N(CCO)c2ccccc2CN(C)C/C=C/c2ccc(Cl)cc2)cc1 | % | 91.8
c1ccc2c(-c3ccncc3)c[nH]c2c1 | % | 103
N#C/C(=C\c1ccc(O)c(O)c1)C(=O)NCc1ccccc1 | % | 104
Ic1cccc(CSc2nnc(-c3ccncc3)o2)c1 | % | 96.8
COc1ccc2c(c1)c(C1=C(c3c[nH]c4ccccc34)C(=O)NC1=O)cn2CCCN(C)C | % | 74.8
COc1cc2ncnc(Nc3ccc(OCc4ccccc4)cc3)c2cc1OC | % | 95.8
CN(C)CCCn1cc(C2=C(c3c[nH]c4ccccc34)C(=O)NC2=O)c2ccccc21 | % | 38.7
N#Cc1c[nH]c2c[nH]/c(=N\Cc3cccnc3)cc2/c1=N\c1ccc(F)c(Cl)c1 | % | 103
CO[C@@H]1[C@H](N(C)C(=O)c2ccccc2)C[C@H]2O[C@]1(C)n1c3ccccc3c3c4c(c5c6ccccc6n2c5c31)C(=O)NC4 | % | 17.3
CCCCc1c(-c2ccc(OC)cc2)[nH]c2nccnc12 | % | 93.3
O=C1Nc2ccc(Br)cc2/C1=C\c1cc2c([nH]1)CCCC2 | % | 84.2
Cc1cncc2cccc(S(=O)(=O)N3CCCN(C(=O)CN)C[C@H]3C)c12 | % | 108
CN(C)c1ccc(/C=C2\C(=O)Nc3ccccc32)cc1 | % | 96.4
Fc1ccc(-c2nc3n(c2-c2ccncc2)CCS3)cc1 | % | 97.1
COc1ccc(Cl)cc1NC(=O)Nc1cc(C)nc2ccccc12 | % | 98.2
NC(=O)c1cccc(-c2cc(Nc3ccc(OC(F)(F)F)cc3)ncn2)c1 | % | 90.8
COc1ccc2c(c1)/C(=C/c1cnc[nH]1)C(O)=N2 | % | 78.8
